test system: Toxoplasma gondii RH tachyzoites; assay: % growth inhibition vs DMSO (48 h luciferase); higher = more inhibition; details: 10 µM
Returns one of true (1) or false (0); true (1) when % growth inhibition is >= 70%.

-- ask Tell me whether % growth inhibition is at least 70% here: O=c1nc(C=Cc2ccc(Br)cc2)oc2ccccc12
-- reply true (1)

-- ask Tell me whether % growth inhibition is at least 70% here: CCCc1c(C)nc2ccccc2c1O
-- reply true (1)

-- ask Tell me whether % growth inhibition is at least 70% here: CCOc1cc2c(cc1OCC)C(c1cc(OC)c(O)cc1Cl)NCC2 (stereo unspecified)
-- reply false (0)

-- ask Tell me whether % growth inhibition is at least 70% here: CCN1CCN(c2cc(C)c3cc(NC(=O)c4ccc(OC)c(OC)c4)ccc3n2)CC1
-- reply false (0)

-- ask Tell me whether % growth inhibition is at least 70% here: Cc1sc2ncnc(Sc3nc4ccccc4[nH]3)c2c1C
-- reply true (1)

-- ask Tell me whether % growth inhibition is at least 70% here: Cc1cc(N(C)C)nc(Nc2ccc(NC(=O)Nc3ccccc3)cc2)n1
-- reply true (1)

-- ask Tell me whether % growth inhibition is at least 70% here: CCOc1cc(Br)c(C(C)NC(=O)c2cccc(OC)c2)cc1OCC (stereo unspecified)
-- reply false (0)

-- ask Tell me whether % growth inhibition is at least 70% here: COc1ccc(NC(=O)C2c3ccccc3C(=O)N(CC(C)C)C2c2cccs2)cc1 (stereo unspecified)
-- reply false (0)

-- ask Tell me whether % growth inhibition is at least 70% here: CCOc1c(Cl)cc(CNC(C)C(O)c2ccccc2)cc1OC (stereo unspecified)
-- reply false (0)

-- ask Tell me whether % growth inhibition is at least 70% here: c1ccc2c(NCCc3c[nH]c4ccccc34)c3ccccc3nc2c1
-- reply true (1)

###

Hi there, I'd appreciate the recorded % growth inhibition for every entry that follows.
test system: Toxoplasma gondii RH tachyzoites; assay: % growth inhibition vs DMSO (48 h luciferase); higher = more inhibition; details: 10 µM
State the answer as a number, implicitly in %.

-- ask Requested read-out: % growth inhibition. Entry: CC(C)(C)c1ccc(O)c(CNC2CCCCC2)c1
-- reply 7.99

-- ask Requested read-out: % growth inhibition. Entry: COc1cc(SC)ccc1C(=O)N1CCCC(C)C1 (configuration not stated)
-- reply 33.1

-- ask Requested read-out: % growth inhibition. Entry: Oc1ccc(Cl)cc1CNc1nc2ccccc2[nH]1
-- reply 96.5

-- ask Requested read-out: % growth inhibition. Entry: COc1cc(C(=O)Nc2nc3c(cc4c5c(cccc53)CC4)s2)cc(OC)c1OC
-- reply 4.43

-- ask Requested read-out: % growth inhibition. Entry: CCOC(=O)c1ccc2nc(-c3ccccc3)cc(O)c2c1
-- reply 72.2

-- ask Requested read-out: % growth inhibition. Entry: CCCN(CCC)CCCNC(=O)c1cc2c(-c3ccc(OC)c(OC)c3)nn(C)c2s1
-- reply 41.4

-- ask Requested read-out: % growth inhibition. Entry: CN1CCN(c2ncnc3c2[nH]c2ccc(Cl)cc23)CC1
-- reply 28.6

-- ask Requested read-out: % growth inhibition. Entry: Oc1ccc(Br)cc1CN1CCN(Cc2ccc(Cl)cc2)CC1
-- reply 91.5

-- ask Requested read-out: % growth inhibition. Entry: Clc1cc(Br)ccc1-c1ccc(CNCC2CCNCC2)o1
-- reply 99.5

###

molecular target: Toxoplasma gondii RH tachyzoites; assay: EC50 growth inhibition (48 h luciferase)
Rule for this label: met means EC50 growth inhibition is less than 1 µM; not met means EC50 growth inhibition is at least 1 µM.

-- ask I wonder whether Cc1cc(N(C)C)nc(Nc2ccc(NC(=O)Nc3ccccc3)cc2)n1 has EC50 growth inhibition below 1 µM. Can you tell?
-- reply not met

-- ask I wonder whether O=C(Nc1ccc(Br)cc1)Nc1cccc(Cl)c1 has EC50 growth inhibition below 1 µM. Can you tell?
-- reply not met

-- ask I wonder whether O=C1c2ccc3c4c(ccc(c24)C(=O)N1CCCCO)C(=O)N(CCCCO)C3=O has EC50 growth inhibition below 1 µM. Can you tell?
-- reply met

-- ask I wonder whether O=c1c2c([nH]c3ccccc13)CCCC2 has EC50 growth inhibition below 1 µM. Can you tell?
-- reply not met

-- ask I wonder whether CCN(CC)CCn1c(=N)n(CC(O)c2ccc(Cl)c(Cl)c2)c2ccccc21 (stereo unspecified) has EC50 growth inhibition below 1 µM. Can you tell?
-- reply not met

-- ask I wonder whether COc1ccc2c(=O)cc(C(Cl)(Cl)Cl)oc2c1 has EC50 growth inhibition below 1 µM. Can you tell?
-- reply not met

###

tested on: Toxoplasma gondii RH tachyzoites; test: % growth inhibition vs DMSO (48 h luciferase); higher = more inhibition; conditions: 10 µM
Returns one of 1 or 0; 1 when % growth inhibition is >= 60%.

-- ask Tell me whether % growth inhibition is at least 60% here: CCN(CC)CCCNc1nc(-c2ccc(Cl)cc2)nc2ccccc12
-- reply 1

-- ask Tell me whether % growth inhibition is at least 60% here: O=C(NCc1ccco1)C1CCN(S(=O)(=O)c2ccc(Cl)cc2)CC1
-- reply 0

-- ask Tell me whether % growth inhibition is at least 60% here: OC(CNCc1ccccc1)Cn1c2ccccc2c2ccccc21 (stereo not drawn)
-- reply 0

-- ask Tell me whether % growth inhibition is at least 60% here: O=c1c2c([nH]c3ccccc13)CCCC2
-- reply 1

-- ask Tell me whether % growth inhibition is at least 60% here: CCOc1ccc2nc(C)cc(Nc3ccc(N(C)C)cc3)c2c1
-- reply 1

-- ask Tell me whether % growth inhibition is at least 60% here: CC(=O)NCCc1nc2ccccc2n1Cc1ccc(C(C)C)cc1
-- reply 0

-- ask Tell me whether % growth inhibition is at least 60% here: CN(C)CCNc1cc(-c2ccccc2)nc2ccccc12
-- reply 1

-- ask Tell me whether % growth inhibition is at least 60% here: O=C(Nc1cccc(-c2nc3ccccc3[nH]2)c1)c1cccc(NC(=O)c2ccco2)c1
-- reply 0

-- ask Tell me whether % growth inhibition is at least 60% here: COc1ccc2sc(N(Cc3cccnc3)C(=O)c3ccc(C#N)cc3)nc2c1
-- reply 0

-- ask Tell me whether % growth inhibition is at least 60% here: COc1ccc(C(C)=O)cc1N1C(=O)C2C(C1=O)C1(c3ccccc3)C(=O)C2(c2ccccc2)C(c2ccc(C)cc2)=C1c1ccc(C)cc1 (stereo not drawn)
-- reply 1

-- ask Tell me whether % growth inhibition is at least 60% here: COc1ccc(CNC(=O)c2cc3c(=O)n4ccccc4nc3n(CCc3ccccc3)c2=N)cc1
-- reply 0

-- ask Tell me whether % growth inhibition is at least 60% here: CCOC(=O)c1cnc2c(C)cc(C)cc2c1Nc1ccc(OC)c(OC)c1
-- reply 0

-- ask Tell me whether % growth inhibition is at least 60% here: COc1ccc(CCN2CCC(CN(C)Cc3cnn(-c4ccccc4)c3)CC2)cc1
-- reply 1

-- ask Tell me whether % growth inhibition is at least 60% here: O=C(Nc1ccc(Br)cc1)Nc1cccc(Cl)c1
-- reply 1

-- ask Tell me whether % growth inhibition is at least 60% here: CCCc1c(CC)c(=N)c2ccccc2n1C
-- reply 0

-- ask Tell me whether % growth inhibition is at least 60% here: COc1ccc(C2NCCc3c2[nH]c2ccccc32)cc1CN1CCN(c2ccc(F)cc2)CC1 (stereo not drawn)
-- reply 1

-- ask Tell me whether % growth inhibition is at least 60% here: Cn1c(=O)n(C)c2cc(CNCCNc3ccnc4cc(Cl)ccc34)ccc21
-- reply 0

-- ask Tell me whether % growth inhibition is at least 60% here: Cc1cc(C)c2c(c1)OCN(Cc1ccccc1Cl)C2
-- reply 0

-- ask Tell me whether % growth inhibition is at least 60% here: CCC(c1ccccc1)c1nn2c(-c3cccs3)nnc2s1 (stereo not drawn)
-- reply 1

-- ask Tell me whether % growth inhibition is at least 60% here: O=C(Nc1cccc(C(F)(F)F)c1)c1cc(Cl)ccc1O
-- reply 1

-- ask Tell me whether % growth inhibition is at least 60% here: CCOc1ccccc1CN1CCc2nc3cc(C(C)(C)C)nn3c(O)c2C1
-- reply 0

-- ask Tell me whether % growth inhibition is at least 60% here: CCCCCCc1cc2cc(-c3nc4ccccc4[nH]3)c(=Nc3ccccc3C)oc2cc1O
-- reply 0

###

test system: Toxoplasma gondii RH tachyzoites; assay: % growth inhibition vs DMSO (48 h luciferase); higher = more inhibition; conditions: 10 µM
reported-metric: % growth inhibition (%)
State the answer as a number, implicitly in %.

-- ask Requested read-out: % growth inhibition. Entry: COc1ccccc1N1C(=N)SC(=Cc2ccc(OCc3ccccc3F)cc2)C1=O
-- reply 93.4

-- ask Requested read-out: % growth inhibition. Entry: CCCCCC(=O)N1c2ccccc2N=C2CC(c3ccc(OC)c(OC)c3)CC(O)=C2C1c1ccc(C(F)(F)F)cc1 (stereo not given)
-- reply 60.4

-- ask Requested read-out: % growth inhibition. Entry: COc1ccc(C(=O)C2CC2c2ccc(Cl)cc2)cc1 (stereo not given)
-- reply 22

-- ask Requested read-out: % growth inhibition. Entry: CC(C)(C)c1ccc2c(c1)CN(Cc1ccc(Cl)cc1)CO2
-- reply 34.1

-- ask Requested read-out: % growth inhibition. Entry: Cc1ccc(Cl)cc1N1CCN(CCCNC(=O)C2CCN(c3nc4ccccc4[nH]3)CC2)CC1
-- reply 98.6

-- ask Requested read-out: % growth inhibition. Entry: COc1cc(OC)cc(N2C(=O)N(Cc3ccc(C(C)(C)C)cc3)c3ccccc3S2(=O)=O)c1
-- reply 57.3

-- ask Requested read-out: % growth inhibition. Entry: COc1ccc(Nc2cc(C)nc(NCc3ccccc3)n2)cc1
-- reply 98.7

-- ask Requested read-out: % growth inhibition. Entry: CC(C)(C)CC(C)(C)NCC(O)COc1ccc(Cl)cc1Cl (stereo not given)
-- reply 99.8
